pIC50: −log10 of the molar value.
Listed here: compounds with reported pIC50 for UniProt:P0AD57.
Sequence (P0AD57 whole entry): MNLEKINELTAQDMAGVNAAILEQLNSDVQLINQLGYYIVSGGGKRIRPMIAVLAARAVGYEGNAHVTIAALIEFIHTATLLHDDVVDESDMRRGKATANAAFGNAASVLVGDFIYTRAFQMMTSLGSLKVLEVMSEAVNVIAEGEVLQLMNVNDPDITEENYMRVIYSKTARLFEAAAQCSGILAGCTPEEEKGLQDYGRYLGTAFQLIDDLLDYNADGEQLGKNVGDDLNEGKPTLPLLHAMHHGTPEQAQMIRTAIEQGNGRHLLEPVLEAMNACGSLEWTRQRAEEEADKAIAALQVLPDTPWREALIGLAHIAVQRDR

O=P(O)(O)C(O)(Cc1cccc(-c2cccc3c2oc2ccccc23)c1)P(=O)(O)O [Compound 69]; ~3.48
O=P(O)(O)C(O)(Cn1ccnc1)P(=O)(O)O [Compound 24, zoledronate]; > 6.00

Here is the next item to consider.
# get_value(readout='pIC50', item= CCCCCCCCCCOc1ccc[n+](CC(P(=O)([O-])O)P(=O)(O)O)c1 (stereo not drawn) [Compound 6] )
~8.22

---

System: Mycobacterium smegmatis
assay: M. smegmatis growth inhibition assay
Format: cell-based
protocol.conditions: 48 hours
Each record here notes measured Ms ED50.
Answer in µg/mL, number only, no unit symbol.

CCCCCCCCCCCCCc1ccc[n+](CC(P(=O)([O-])O)P(=O)(O)O)c1 (centres unmarked); 7.2
CC(C)CCCC(C)CCc1csc(NCC(P(=O)(O)O)P(=O)(O)O)n1 (centres unmarked); 150
CC(C)CCCC(C)CCNc1ccc[n+](CC(P(=O)([O-])O)P(=O)(O)O)c1 (centres unmarked); 5.5
CC(C)CCCC(C)CCc1cnc(NCC(P(=O)(O)O)P(=O)(O)O)s1 (centres unmarked); 150
CC(C)CCCC(C)CCCc1ccc[n+](CC(P(=O)([O-])O)P(=O)(O)O)c1 (centres unmarked); 5.9

Observed Ms ED50 on Mycobacterium smegmatis for CC(C)CCCC(C)CCOc1cccc(NCC(P(=O)(O)O)P(=O)(O)O)n1 (centres unmarked) , please.
200

Another compound: CC(C)CCOc1ccc[n+](CC(P(=O)([O-])O)P(=O)(O)O)c1 (centres unmarked)
65

Another compound: CC(C)CCCC(C)CCOc1cc(NCC(P(=O)(O)O)P(=O)(O)O)ccn1 (centres unmarked)
75

Another compound: CC(C)CCCC(C)CCSc1cc[n+](CC(P(=O)([O-])O)P(=O)(O)O)cc1 (centres unmarked)
70

Another compound: CC(C)CCCC(C)CCOc1ccc[n+](CC(P(=O)([O-])O)P(=O)(O)O)c1 (centres unmarked)
5.9

---

target.or.system: SaHepPPS (S. aureus heptaprenyl diphosphate synthase) (Staphylococcus aureus, UniProt Q2FYG6)
pIC50: −log10 of the molar value.
measured.parameter: pIC50

CCCCCCCCCCCCCCOc1cccc(O)c1C(=O)O; 5.70 to 6.00

Here is the next item to consider.
# get_value(readout='pIC50', item= O=P(O)(O)C(O)(Cc1cccc(-c2cccc3c2oc2ccccc23)c1)P(=O)(O)O )
5.70 to 6.00

---

Test system: HEK293 cells
assay: HEK293 cell growth inhibition assay
Assay type: cell-based, human
protocol.conditions: HEK293 cell growth inhibition ED50; 24 hr incubation; value in parentheses
Each record here notes measured HEK 293.
Answer in µM, number only, no unit symbol.

# get_value(readout='HEK 293', item= CC(C)CCCC(C)CCSc1cc[n+](CC(P(=O)([O-])O)P(=O)(O)O)cc1 (stereo not shown) [Compound 85] )
1000

Another molecule: CC(C)CCCC(C)CCCc1cc[n+](CC(P(=O)([O-])O)P(=O)(O)O)cc1 (stereo not shown) [Compound 80]
700

Another molecule: CC(C)CCCC(C)CCSc1ccc[n+](CC(P(=O)([O-])O)P(=O)(O)O)c1 (stereo not shown) [Compound 79]
510

Another molecule: CC(C)CCCC(C)CCOc1ccnc(NC(P(=O)(O)O)P(=O)(O)O)c1 (stereo not shown) [Compound 95]
1300

Values from paper PMC6427912
